Origin of the recorded values: paper PMC7066280

Assay: Ivosidenib plasma PK after a single oral dose (day −3, dose escalation), LC-MS/MS, non-compartmental
Format: in vivo
Conditions: human, po, 300 mg, non-glioma solid tumors, single oral 300 mg, day −3, geometric mean (geometric CV%), read-out: AUC0-72h
Measured Property: AUC(0-t) (ng·h/mL)
Answers are plain numbers, in ng·h/mL.

## Task Check the records and state AUC(0-t) for N#Cc1ccnc(N2C(=O)CC[C@H]2C(=O)N(c2cncc(F)c2)[C@H](C(=O)NC2CC(F)(F)C2)c2ccccc2Cl)c1
## Result 71600

----------
Assay: Ivosidenib plasma PK after multiple oral doses (dose escalation)
Assay type: in vivo, human
Details: human, plasma, oral, after multiple doses, glioma and non-glioma solid tumors; read-out: median Tmax
Measured Property: Tmax

## Task Check the records and state Tmax for N#Cc1ccnc(N2C(=O)CC[C@H]2C(=O)N(c2cncc(F)c2)[C@H](C(=O)NC2CC(F)(F)C2)c2ccccc2Cl)c1
## Result 2 to 3 h

----------
Assay: Ivosidenib plasma PK after multiple oral doses (dose escalation)
Assay type: in vivo, human
Settings: human, plasma, oral, 300 mg, glioma, 300 mg QD, cycle 2 day 1; median; read-out: Tmax
Measured Property: Tmax (h)
Numbers only, in h.

## Task Check the records and state Tmax for N#Cc1ccnc(N2C(=O)CC[C@H]2C(=O)N(c2cncc(F)c2)[C@H](C(=O)NC2CC(F)(F)C2)c2ccccc2Cl)c1
## Result 2.54

----------
Assay: Ivosidenib plasma PK after single and multiple 500 mg QD doses (dose expansion)
Assay type: in vivo, human
Conditions: human, plasma, oral, 500 mg, expansion chondrosarcoma, cycle 2 day 1, geometric mean (geometric CV%)
Measured Property: Cmax

## Task Check the records and state Cmax for N#Cc1ccnc(N2C(=O)CC[C@H]2C(=O)N(c2cncc(F)c2)[C@H](C(=O)NC2CC(F)(F)C2)c2ccccc2Cl)c1
## Result 5300 ng/mL

----------
Experiment: Ivosidenib plasma PK after a single oral dose (day −3, dose escalation), LC-MS/MS, non-compartmental
Assay type: in vivo
Details: human, po, 900 mg, glioma, single oral 900 mg, day −3, geometric mean (geometric CV%), read-out: AUC0-72h
Measured Property: AUC(0-t)

## Task Check the records and state AUC(0-t) for N#Cc1ccnc(N2C(=O)CC[C@H]2C(=O)N(c2cncc(F)c2)[C@H](C(=O)NC2CC(F)(F)C2)c2ccccc2Cl)c1
## Result 98600 ng·h/mL

----------
Experiment: Ivosidenib plasma PK after multiple oral doses (dose escalation)
Type: in vivo, human
Conditions: human, plasma, oral, 100 mg, non-glioma solid tumors, 100 mg BID, cycle 2 day 1; median; read-out: Tmax
Measured Property: Tmax (h)
Give bare numbers, in h.

## Task Check the records and state Tmax for N#Cc1ccnc(N2C(=O)CC[C@H]2C(=O)N(c2cncc(F)c2)[C@H](C(=O)NC2CC(F)(F)C2)c2ccccc2Cl)c1
## Result 2.5

----------
Test: Ivosidenib plasma PK after single and multiple 500 mg QD doses (dose expansion)
Assay type: in vivo, human
Conditions: human, plasma, oral, 500 mg, expansion overall, cycle 2 day 1, geometric mean (geometric CV%), read-out: AUC0-24hr
Measured Property: AUC(0-t) (µg·h/mL)
Answers are plain numbers, in µg·h/mL.

## Task Check the records and state AUC(0-t) for N#Cc1ccnc(N2C(=O)CC[C@H]2C(=O)N(c2cncc(F)c2)[C@H](C(=O)NC2CC(F)(F)C2)c2ccccc2Cl)c1
## Result 68.5
